# Assay overview: Ratio of drug level in Sprague-Dawley rat brain to plasma at 0.5 mg/kg iv after 0.50 hrs
# Format: ADME, organism-based
# Set-up: dose 0.5 mg/kg, route intravenous
# Setup conditions: read-out: BPR

Molecule	Kp at 0.5 h
CN(C)CCC(c1ccc(Cl)c(Cl)c1)N1CCOCC1 (stereo unspecified)	12.3

====

# Assay overview: Ratio of drug level in Sprague-Dawley rat brain to plasma at 0.5 mg/kg iv after 2 hrs
# Assay type: ADME, organism-based
# Design: dose 0.5 mg/kg, route intravenous
# Setup conditions: read-out: BPR
Measurement name: Kp at 2 h

Compound	Measurement name	Observed
CN(C)CCC(c1ccc(Cl)c(Cl)c1)N1CCOCC1 (stereo unspecified)	Kp at 2 h	16.4
